Molecular target: T1, FLAG-tagged mouse Ang2 (mouse, UniProt O35608 19-496)
T1 construct: N-terminally FLAG-tagged, conditioned medium of HEK293T cells; also called mAng2; FLAG-mAng2
T1 sequence: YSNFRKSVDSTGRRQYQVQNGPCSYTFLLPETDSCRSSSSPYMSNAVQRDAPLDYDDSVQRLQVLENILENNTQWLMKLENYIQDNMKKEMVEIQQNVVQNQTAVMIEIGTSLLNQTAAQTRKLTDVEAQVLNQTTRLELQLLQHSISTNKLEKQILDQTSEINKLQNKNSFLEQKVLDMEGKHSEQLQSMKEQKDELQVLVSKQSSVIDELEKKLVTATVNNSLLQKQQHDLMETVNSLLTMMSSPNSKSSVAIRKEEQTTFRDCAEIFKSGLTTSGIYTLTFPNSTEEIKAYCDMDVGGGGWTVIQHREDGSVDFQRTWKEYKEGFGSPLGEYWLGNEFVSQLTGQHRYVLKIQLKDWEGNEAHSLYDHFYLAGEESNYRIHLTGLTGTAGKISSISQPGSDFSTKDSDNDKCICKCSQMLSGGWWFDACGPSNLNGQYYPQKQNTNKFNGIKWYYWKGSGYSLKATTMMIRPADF
Experiment: competition ELISA: FLAG-mAng2 binding to coated mTie2-Fc
value kind: IC50 (nM)
All answers are understood in nM, so give the number only.

// IC50 lookup, key: VHH 00050 (VHH, not shown: small tags and cut ends) VHH: EVQLVESGGGLVQPGGSLRLSCAASGFTFDDYALGWFRQAPGKEREGVSCIRCSDGSTYYADSVKGRFTISSDNSKNTVYLQMNSLRPEDTAVYYCAASIVPRSKLEPYEYDAWGQGTLVTVSS
18.6

Data request, read-out IC50, for VHH 00908 (VHH, not shown: small tags and cut ends) VHH: EVQLVESGGGLVQPGGSLRLSCAASGITLDDYAIGWFRQAPGKEREGVSSIRDNGGSTYYADSVKGRFTISSDNSKNTVYLQMNSLRPEDTAVYYCAAVPAGRLRYGEQWYPIYEYDAWGQGTLVTVSS
0.085

Returns the measured IC50 for the input binder. Input: VHH 00051 (VHH, not shown: small tags and cut ends) VHH: EVQLVESGGGLVQPGGSLRLSCAASGFTFDDYALGWFRQAAGKEREGVSCIRCSGGSTYYADSVKGRFTISSDNSKNTVYLQMNSLRPEDTAVYYCAASIVPRSKLEPYEYDAWGQGTLVTVSS
37.9

So what does the record say about IC50 for VHH 00046 (VHH, not shown: small tags and cut ends) VHH: EVQLVESGGGLVQPGGSLRLSCAASGFALDYYAIGWFRQAPGKEREGVSCISSSGGITYYVDSVKGRFTISRDNSKNTVYLQMNSLRPEDTAVYYCATDSGGYIDYDCMGLGYDYWGQGTLVTVSS ?
0.083

// returns reported IC50 for input VHH 00919 (VHH, not shown: small tags and cut ends) VHH: EVQLVESGGGLVQPGGSLRLSCAASGFTLDDYAIGWFRQAPGKEREGVSAIRDNGGSTYYADSVKGRFTISSDNSKNTVYLQMNSLRPEDTAVYYCAAVPAGRLRFGEQWYPLYEYDAWGQGTLVTVSS
1.8

Quick one: IC50 of VHH 00039 (VHH, not shown: small tags and cut ends) VHH: EVQLVESGGGLVQPGGSLRLSCAASGFTFDDYALGWFRQAAGKEREGVSCIRCSDGSTYYADSVKGRFTISRDNSKNTVYLQMNSLRPEDTAVYYCAASIVPRSKLEPYEYDAWGQGTLVTVSS ?
28.1

Fill blank: measured IC50 of the binder VHH 00040 (VHH, not shown: small tags and cut ends) VHH: EVQLVESGGGLVQPGGSLRLSCAASGFTFDDYALGWFRQAPGKEREGVSCIRCSDGSTYYADSVKGRFTISRDNSKNTVYLQMNSLRPEDTAVYYCAASIVPRSKLEPYEYDAWGQGTLVTVSS is ____.
29

Return reported IC50; argument: VHH 00045 (VHH, not shown: small tags and cut ends) VHH: EVQLVESGGGLVQPGGSLRLSCAASGFALDYYAIGWFRQAPGKEREGVSCISSSDGITYYADSVKGRFTISRDNSKNTVYLQMNSLRPEDTAVYYCATDSGGYIDYDCMGLGYDYWGQGTLVTVSS
0.11

Look at this binder and give its reported IC50. VHH 1D01 (VHH, not shown: small tags and cut ends, Parental llama VHH; also called 001D01) VHH: EVQLVESGGGLVQAGGSLRLSCAASGFTFDDYALGWFRQAAGKEREGVSCIRCSDGSTYYADSVKGRFTISSDNAKNTVYLQMNSLKPEDTAVYYCAASIVPRSKLEPYEYDAWGQGTQVTVSS
12.4
